B1: KAT8 regulatory NSL complex subunit 2, residues 28 to 91; numbered along this chain, Q9H9L4 (parent)
chain: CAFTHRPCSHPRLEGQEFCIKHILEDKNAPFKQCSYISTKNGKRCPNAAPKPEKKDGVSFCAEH

Variants of: B1
assay method text: abundance fitness (aPCA) (normalised: wild type 0, dead -1); higher = more abundant; growth selection in yeast, the domain comes from the species named
measurement conditions: Homo sapiens
recorded metric: abundance fitness
Keep it simple and answer with nothing but the number.

Here is how some variants turned out for abundance fitness.
P52L
-0.106
N41T
-0.195
P52E
-0.066
L13I
-0.145

So what's the measured abundance fitness for this one? H5R
-0.01

Follow-up entry: R6P
-0.047
